In this section, each of the molecules is paired with its reported inhibition at 10 µM.
System: LTB4 synthesis by rat glycogen-elicited polymorphonuclear leukocytes (PMN)
Assay: inhibition of LTB4 synthesis by rat glycogen-elicited polymorphonuclear leukocytes (PMN)
Type: cell-based, rat (female Wistar)
Conditions: Leukocyte, at 10 μM
Source text: This is especially true with respect to 5,12-diHETE, which is also denoted as LTB4 [see Ford-Hitchinson, J. Roy. […] Med., 74, 831 (1981)]. […] Accordingly, the specificity of action of PLA2 inhibitors can be determined by the activity of test compounds in this assay, which measures the ability of compounds to inhibit the synthesis of LTB4 by rat glycogen-elicited polymorphonuclear leukocytes (PMN) in the presence of exogenous substrate. […]
Quote the value and follow it with the unit of measurement.

Guide cases for inhibition at 10 µM, answers given:
# molecule, inhibition at 10 µM
rows = [
    ("O=C(O)Cc1cccc(C(=O)c2ccc(OCc3ccc4ccccc4n3)cc2)c1 [Example 3, acetic acid]", "87%"),
    ("O=C(O)CCc1nc(-c2ccc(OCc3ccc4ccccc4n3)cc2)c(-c2ccccc2)o1 [Example 5]", "96%"),
]

Item Cn1c(COc2ccc(-c3nc(CCC(=O)O)oc3-c3ccccc3)cc2)nc2ccccc21 [Example 7] has what recorded inhibition at 10 µM?
85%

Entry under review: O=C(O)CCc1nc(-c2ccc(OCc3ccc4ccccc4c3)cc2)c(-c2ccccc2)o1 [Example 6] . Reported inhibition at 10 µM?
95%

Can you share its inhibition at 10 µM? I mean this molecule: COC(=O)CCc1nc(-c2ccc(OCc3ccc4ccccc4c3)cc2)c(-c2ccccc2)o1 [Example 6A]
94%

Endpoint output: inhibition at 10 µM of O=C(O)Cc1cccc(C(=O)c2ccc(OCc3ccc4ccccc4c3)cc2)c1 [Example 4, acetic acid] . Value?
8%
